Data provenance is the supplement of paper PMC13380429.

Please go through the items and note down their relative viability EC50.
Tested on: Caco-2
ASSAY_REMARKS: relative viability EC50 (midpoint between 100% and the lowest measured viability); higher = less toxic
MEASUREMENT_SETUP: 72 h

Please review the entries below; each comes with its answer.
[
  {
    "COMPOUND": "COc1c(OCCCN2CCOCC2)ccc2c1N=C(NC(=O)c1cnc(N)nc1)N1CCN=C21",
    "relative viability EC50": "1.73 µM"
  },
  {
    "COMPOUND": "CN1CCN(CCCN2c3ccccc3Sc3ccc(S(=O)(=O)N(C)C)cc32)CC1",
    "relative viability EC50": "> 10 µM"
  },
  {
    "COMPOUND": "CCN(CC)CCNc1ccc(CO)c2sc3ccccc3c(=O)c12",
    "relative viability EC50": "3.5 µM"
  },
  {
    "COMPOUND": "CCCC[C@@]1(C2CCCC2)Cc2cc(OCCCC(=O)O)c(Cl)c(Cl)c2C1=O",
    "relative viability EC50": "> 10 µM"
  },
  {
    "COMPOUND": "CC(C)(C)C(=O)OCOC(=O)[C@@H]1N2C(=O)C[C@H]2S(=O)(=O)C1(C)C",
    "relative viability EC50": "> 10 µM"
  }
]

// each compound listed below needs its relative viability EC50
1. O=S(=O)(c1ccccc1)c1cnc2c(N3CCNCC3)cccc2c1
2. COc1ccc(C[C@H]2NC[C@H](O)[C@H]2OC(C)=O)cc1

Reply:
> 10 µM
0.0691 µM
